// reported Binding affinity (RU) for each item listed
Study System: acetylcholine receptor
Method Notes: SPR, AchR on chip, peptide 10 uM
Express the result in RU but write the number alone.

# Binder, Binding affinity (RU)
records = [
    ("RGRTR [5mer-221]", 58),
    ("KRVLK [5mer-3]", 66),
    ("KRQCK [5mer-46]", 76),
    ("RRLSR [5mer-37]", 72),
    ("RQLSK [5mer-510]", 71),
]

Now for the binder whose Binding affinity (RU) we want.
Task item: Return value of Binding affinity (RU) for input RQQLK [5mer-22] , no commentary.
Reply: 66
